# Measurement Protocol: Antibacterial activity against Acinetobacter calcoaceticus/baumannii complex isolate MC4AC9-30 expressing KPC beta lactamase
# Type: functional
Observation Type: MIC

Briefly, MIC measured for `NCC[C@H](O)C(=O)N[C@@H]1C[C@H](N)[C@@H](O[C@H]2O[C@H](CN)[C@@H](O)[C@H](O)[C@H]2O)[C@H](O)[C@H]1O[C@H]1O[C@H](CO)[C@@H](O)[C@H](N)[C@H]1O` : > 32 µg/mL

Briefly, MIC measured for `C[C@@H](O)[C@H]1C(=O)N2C(C(=O)O)=C(S[C@@H]3CN[C@H](C(=O)N(C)C)C3)[C@H](C)[C@H]12` : > 8 µg/mL

Briefly, MIC measured for C[C@@H](O)[C@H]1C(=O)N2C(C(=O)O)=C(SCCNC=N)C[C@H]12 [IMIPENEM ANHYDROUS] : 8 µg/mL

Briefly, MIC measured for `CO/N=C(\C(=O)N[C@@H]1C(=O)N2C(C(=O)O)=C(COC(C)=O)CS[C@H]12)c1csc(N)n1` : > 32 µg/mL

Briefly, MIC measured for `CO/N=C(\C(=O)N[C@@H]1C(=O)N2C(C(=O)[O-])=C(C[N+]3(C)CCCC3)CS[C@H]12)c1csc(N)n1` : > 16 µg/mL

Briefly, MIC measured for `CC(C)(O/N=C(\C(=O)N[C@@H]1C(=O)N2C(C(=O)[O-])=C(C[n+]3ccccc3)CS[C@H]12)c1csc(N)n1)C(=O)O` : > 16 µg/mL
